Tested on: IFNα pSTAT4 (JAK1/TYK2)
Assay: IFNα pSTAT4 (JAK1/TYK2) cellular assay (AlphaLISA, PBMCs)
Assay type: cell-based
Settings: PBMC, IFNα at 4 ng/mL
Description: The AlphaLISA assay (based on Alpha Technology from PerkinElmer) was performed by first plating freshly thawed PBMCs (Biological Specialty Corporation) in 384-well plates at 100,000 cells per 6 μL per well in DMEM (Dulbecco's Modified Eagle Medium) containing 10% FBS (fetal bovine serum) and 1,000 I.U./mL penicillin and 1,000 μg/mL streptomycin. […] Finally, the plates were read on a PerkinElmer EnVision for detection of the time-resolved fluorescence signal. […]
property.name: IC50 (nM)

INSERT INTO measurements (molecule, units_of_measure, assay_result) VALUES
  ('N#CC[C@H]1CC[C@H](n2c(CC(=O)NCC3CCOCC3)nc3cnc4[nH]ccc4c32)CC1 [Ex. 10]', 'nM', 39.4),
  ('N#CCC12CCC(NC(=O)Cc3nc4cnc5[nH]ccc5c4n3[C@H]3CC[C@H](CC#N)CC3)(CC1)C2 [Ex. 55]', 'nM', 40.4),
  ('N#CC[C@H]1CC[C@H](n2c(CC(=O)NCC3(O)CCC3)nc3cnc4[nH]ccc4c32)CC1 [Ex. 34]', 'nM', 42.8),
  ('N#CCC1CCC(n2c(-c3c[nH]cn3)nc3cnc4[nH]ccc4c32)CC1 (stereo not drawn) [Ex. 2]', 'nM', 20.8),
  ('N#CC[C@H]1CC[C@H](n2c(CC(=O)NC3CCOCC3)nc3cnc4[nH]ccc4c32)CC1 [Ex. 5]', 'nM', 38.1),
  ('N#CC[C@H]1CC[C@H](n2c(CC(=O)NCC3(O)CC3)nc3cnc4[nH]ccc4c32)CC1 [Ex. 85]', 'nM', 81.4),
  ('CC(C)(C#N)CNC(=O)Cc1nc2cnc3[nH]ccc3c2n1[C@H]1CC[C@H](CC#N)CC1 [Ex. 22]', 'nM', 38.5),
  ('N#CC[C@H]1CC[C@H](n2c(CC(=O)NCC3CC3)nc3cnc4[nH]ccc4c32)CC1 [Ex. 3]', 'nM', 10.1),
  ('N#CCCNC(=O)Cc1nc2cnc3[nH]ccc3c2n1[C@H]1CC[C@H](CC#N)CC1 [Ex. 4]', 'nM', 64.7);

----------
Some molecules, each annotated with its measured concentration at 0.5 h.
Assay: In vivo p.o. dosing: plasma and colon tissue concentrations (Protocols 1 and 2)
Design: species or system female C57BL/6 mice
Conditions: female, C57BL/6, mouse, plasma, po; mice, 25 mg/kg p.o., Time = 0.5 h; read-out: Plasma Concentration After p.o. Dosing, Mean
property.name: concentration at 0.5 h

INSERT INTO results (structure_smiles, property_name, assay_result) VALUES
  ('N#CC[C@H]1CC[C@H](n2c(CC(=O)NC3CCOCC3)nc3cnc4[nH]ccc4c32)CC1', 'concentration at 0.5 h', '31.9 ng/mL'),
  ('N#CCC12CCC(NC(=O)Cc3nc4cnc5[nH]ccc5c4n3[C@H]3CC[C@H](CC#N)CC3)(CC1)C2', 'concentration at 0.5 h', '26.6 ng/mL'),
  ('N#CC[C@H]1CC[C@H](n2c(CC(=O)NCC3(O)CCC3)nc3cnc4[nH]ccc4c32)CC1', 'concentration at 0.5 h', '43.1 ng/mL');

----------
Quick reference for log10 of IC50 among some molecules
Target: Tyk2-JH1JH2 (Homo sapiens (Human), UniProt P29597, C1142A/C936A)
Sequence (P29597 580-1182 C936A/C1142A): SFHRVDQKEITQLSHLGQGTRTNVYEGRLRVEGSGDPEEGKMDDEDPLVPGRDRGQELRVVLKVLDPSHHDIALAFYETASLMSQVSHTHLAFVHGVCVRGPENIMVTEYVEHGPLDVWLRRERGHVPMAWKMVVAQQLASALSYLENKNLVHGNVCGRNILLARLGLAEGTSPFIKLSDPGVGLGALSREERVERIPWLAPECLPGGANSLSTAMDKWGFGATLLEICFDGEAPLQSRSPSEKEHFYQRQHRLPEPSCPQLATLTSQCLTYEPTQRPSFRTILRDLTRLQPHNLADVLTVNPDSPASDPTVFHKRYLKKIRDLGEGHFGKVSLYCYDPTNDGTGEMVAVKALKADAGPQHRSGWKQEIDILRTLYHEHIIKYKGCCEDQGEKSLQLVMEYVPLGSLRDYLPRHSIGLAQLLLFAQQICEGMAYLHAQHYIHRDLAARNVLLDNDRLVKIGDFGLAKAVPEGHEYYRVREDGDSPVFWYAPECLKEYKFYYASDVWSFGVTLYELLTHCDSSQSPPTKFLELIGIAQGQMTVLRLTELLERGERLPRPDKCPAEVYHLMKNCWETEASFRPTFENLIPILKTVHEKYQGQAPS
Test: Enzymatic inhibition assay (RapidFire HTMS), Tyk2
Conditions: 50 μM ATP, 200 μM substrate
property.name: log10 of IC50 (log10 of the value in µM)

INSERT INTO results (molecule, property_name, assay_result) VALUES
  ('N#CC[C@H]1CC[C@H](n2c(C(=O)N3CCC(O)(c4ccccc4)C3)nc3cnc4[nH]ccc4c32)CC1 (some centres unmarked)', 'log10 of IC50', -1.68),
  ('N#CC[C@H]1CC[C@H](n2c(-c3n[nH]cc3Cl)nc3cnc4[nH]ccc4c32)CC1', 'log10 of IC50', -2.43),
  ('N#CC[C@H]1CC[C@H](n2c(CC(=O)NCCOc3ccncc3)nc3cnc4[nH]ccc4c32)CC1', 'log10 of IC50', -2.24),
  ('N#CC[C@H]1CC[C@H](n2c(CC(=O)Nc3cccnc3)nc3cnc4[nH]ccc4c32)CC1', 'log10 of IC50', -2.20),
  ('N#CC[C@H]1CC[C@H](n2c(CC(=O)NCc3ccc(C#N)cc3)nc3cnc4[nH]ccc4c32)CC1', 'log10 of IC50', -2.00),
  ('N#CC[C@H]1CC[C@H](n2c(CO/N=C(\N)C34CC5CC(CC(C5)C3)C4)nc3cnc4[nH]ccc4c32)CC1', 'log10 of IC50', -1.27),
  ('CC(C)(O)CNC(=O)Cc1nc2cnc3[nH]cc(Cl)c3c2n1[C@H]1CC[C@H](CC#N)CC1', 'log10 of IC50', -0.91),
  ('N#CC[C@H]1CC[C@H](n2c(CNC(=O)NCC3CCCCC3)nc3cnc4[nH]ccc4c32)CC1', 'log10 of IC50', -1.70);

----------
What follows is a record of log10 of IC50 for JAK1-JH1JH2 (Homo sapiens (Human), UniProt P23458).
property.name: log10 of IC50 (log10 of the value in pM)

INSERT INTO measurements (compound, assay_result) VALUES
  ('Cc1cc(-c2nc3cnc4[nH]ccc4c3n2[C@H]2CC[C@H](CC#N)CC2)[nH]n1 [Ex. 81]', 2.60),
  ('N#CC[C@H]1CC[C@H](n2c(CC(=O)NC34CC5CC(CC(C5)C3)C4)nc3cnc4[nH]ccc4c32)CC1 [Ex. 32]', 2.30),
  ('Cc1nc(C)c(-c2nc3cnc4[nH]ccc4c3n2[C@H]2CC[C@H](CC#N)CC2)s1 [Ex. 184]', 4.41),
  ('CS(=O)(=O)c1ccc(-c2ccc(-c3nc4cnc5[nH]ccc5c4n3[C@H]3CC[C@H](CC#N)CC3)cc2)cc1 [Ex. 91]', 2.60),
  ('N#CC[C@H]1CC[C@H](n2c(CC(=O)NCC(F)(F)F)nc3cnc4[nH]ccc4c32)CC1 [Ex. 57]', 2.30),
  ('CN1CCC(NC(=O)Cc2nc3cnc4[nH]ccc4c3n2[C@H]2CC[C@H](CC#N)CC2)CC1 [Ex. 66]', 2.48),
  ('N#CC[C@H]1CC[C@H](n2c(CC(=O)NCc3ccccc3)nc3cnc4[nH]ccc4c32)CC1 [Ex. 48]', 2.30),
  ('CC(C)(C)COC(=O)NCc1nc2cnc3[nH]ccc3c2n1[C@H]1CC[C@H](CC#N)CC1 [Ex. 154]', 3.08);

----------
This listing pairs compounds with measured Papp B→A at 60 min, 5 μM.
Test system: P-gp (MDR1)
Experiment: MDCK-MDR1 permeability assay
Type: in vitro ADME
Details: dog, MDCK-MDR1, pH 7.4, @ 5 μM, basolateral to apical
property.name: Papp B→A at 60 min, 5 μM (×10⁻⁶ cm/s)

INSERT INTO results (structure_smiles, target_desc, property_name, assay_result) VALUES
  ('CC(C)(C#N)CNC(=O)Cc1nc2cnc3[nH]ccc3c2n1[C@H]1CC[C@H](CC#N)CC1', 'P-gp (MDR1)', 'Papp B→A at 60 min, 5 μM', 3.6),
  ('N#CC[C@H]1CC[C@H](n2c(CC(=O)Nc3cc[nH]n3)nc3cnc4[nH]ccc4c32)CC1', 'P-gp (MDR1)', 'Papp B→A at 60 min, 5 μM', 1.1),
  ('N#CC[C@H]1CC[C@H](n2c(CC(=O)NCC3(O)CC3)nc3cnc4[nH]ccc4c32)CC1', 'P-gp (MDR1)', 'Papp B→A at 60 min, 5 μM', 1.1),
  ('N#CC[C@H]1CC[C@H](n2c(CC(=O)NCC3CC3)nc3cnc4[nH]ccc4c32)CC1', 'P-gp (MDR1)', 'Papp B→A at 60 min, 5 μM', 17);

----------
Molecular target: JAK1-JH1JH2 (Homo sapiens (Human), UniProt P23458)
Sequence (P23458 574-1154): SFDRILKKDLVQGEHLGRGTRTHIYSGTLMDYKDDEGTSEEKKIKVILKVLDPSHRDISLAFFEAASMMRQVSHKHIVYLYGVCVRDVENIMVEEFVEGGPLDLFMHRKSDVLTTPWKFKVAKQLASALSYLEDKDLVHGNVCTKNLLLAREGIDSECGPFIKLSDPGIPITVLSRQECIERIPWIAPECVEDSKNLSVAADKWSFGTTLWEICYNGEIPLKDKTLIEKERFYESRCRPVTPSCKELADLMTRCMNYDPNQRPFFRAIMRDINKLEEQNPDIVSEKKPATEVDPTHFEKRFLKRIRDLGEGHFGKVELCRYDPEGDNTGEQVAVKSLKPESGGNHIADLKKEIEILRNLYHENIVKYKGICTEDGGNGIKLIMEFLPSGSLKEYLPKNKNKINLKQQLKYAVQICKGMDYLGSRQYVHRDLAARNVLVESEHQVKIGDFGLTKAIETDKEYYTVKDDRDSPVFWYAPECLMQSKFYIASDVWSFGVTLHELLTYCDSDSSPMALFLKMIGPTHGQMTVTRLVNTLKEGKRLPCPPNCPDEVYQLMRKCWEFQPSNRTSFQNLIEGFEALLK
Hi! Just check whether IC50 is below 0.5 nM. Below gives Satisfied, equal or above gives Not satisfied.

INSERT INTO assay_data (structure_smiles, label) VALUES
  ('N#CC[C@H]1CC[C@H](n2c(CNC(=O)Nc3ccccc3)nc3cnc4[nH]ccc4c32)CC1', 'Satisfied'),
  ('N#CC[C@H]1CC[C@H](n2c(CC(=O)N[C@H]3CC[C@H](O)CC3)nc3cnc4[nH]ccc4c32)CC1', 'Satisfied'),
  ('N#CC[C@H]1CC[C@H](n2c(CC(=O)NC34CC5CC(CC(O)(C5)C3)C4)nc3cnc4[nH]ccc4c32)CC1', 'Satisfied'),
  ('CC(C)CN1CCC(NC(=O)Cc2nc3cnc4[nH]ccc4c3n2[C@H]2CC[C@H](CC#N)CC2)CC1', 'Satisfied'),
  ('N#CC[C@H]1CC[C@H](n2c(CO/N=C(\N)C34CC5CC(CC(C5)C3)C4)nc3cnc4[nH]ccc4c32)CC1', 'Not satisfied'),
  ('N#CC[C@H]1CC[C@H](n2c(C(=O)N3CCC(O)(c4ccccn4)CC3)nc3cnc4[nH]ccc4c32)CC1', 'Satisfied'),
  ('N#CC[C@H]1CC[C@H](n2c(C(=O)NCC3(O)CCCCCC3)nc3cnc4[nH]ccc4c32)CC1', 'Not satisfied');
